system: NOMO1; assay: cell viability relative to DMSO control; higher = less cytotoxic; details: RPMI 5 mM glucose + 10% FBS; 48 h; 0.0632 µM
Label 1.0 when cell viability is strictly below 90%; at or above that, label 0.0.

{"columns": ["compound", "class_label"],
 "data": [
  ["CCCCCCCCOc1ccccc1C(=O)Nc1ccc(C(=O)OCC[N+](C)(CC)CC)cc1", 0.0],
  ["O=[N+]([O-])c1ccc(Nc2ccccc2-c2ccccc2)c2nonc12", 1.0],
  ["CC(=O)OCC(=O)[C@@]12OC(C)(C)O[C@@H]1C[C@H]3[C@@H]4C[C@H](F)C/5=C/C(=O)/C=C\\[C@]5(C)[C@@]4(F)[C@@H](O)C[C@]23C", 0.0],
  ["CN1/C=C(\\N=C(NC2=CC=C(C=C2)C(=O)N3CCOCC3)/C1=O)/C4=C(C)C(=CC=C4)NC(=O)C5=CC=C(C=C5)C(C)(C)C", 0.0],
  ["CC(=O)Oc1cc2c(s1)CCN(C(C(=O)C1CC1)c1ccccc1F)C2.Cl (centres undefined)", 0.0],
  ["CO[C@H]1/C=C/O[C@@]2(C)Oc3c(C)c(O)c4c(O)c(c(/C=N/N5CCN(C)CC5)c(O)c4c3C2=O)NC(=O)/C(C)=C\\C=C\\[C@H](C)[C@H](O)[C@@H](C)[C@@H](O)[C@@H](C)[C@H](OC(C)=O)[C@@H]1C", 0.0],
  ["CC1=CC=C2\\N=C/3N(CC[C@@]3(O)C(=O)C2=C1)C4=CC=CC=C4", 1.0],
  ["COCCCOc1ccnc(C[S+]([O-])c2nc3ccccc3[nH]2)c1C (centres undefined)", 0.0],
  ["Nc1nc(Nc2ccc([S+](N)(=O)[O-])cc2)nn1C(=O)c1c(F)cccc1F", 0.0],
  ["CCc1c(O)cc(O)c(C(=O)c2ccc(OCCN3CCOCC3)c(OC)c2)c1CC(=O)N(CCOC)CCOC", 0.0],
  ["Cc1ccc(NC(=O)c2cccc(N(C)C)c2)cc1NC(=O)c1ccc(O)cc1", 0.0],
  ["CNC(=O)c1ccc(N2C(=S)N(c3ccc(C#N)c(C(F)(F)F)c3)C(=O)C2(C)C)cc1F", 0.0]
]}
